Source listed as PubChem BioAssay (NCI).

Tested on: NCI-H522 lung
assay-info: NCI tumour cell line growth inhibition, 48 h
# TGI listing for each entry below
A number alone suffices; assume µM.

compound	assay-result
C=C1CC2OC2(C(=O)O[C@H]2CCC3[C@@H]4CCC5=CC(=O)CC[C@]5(C)C4CC[C@@]32C)C1=O (stereo partly drawn)	8

API: the following record is the query input.
Entry O=C(NN1C(=O)CSC12CCCCC2)c1[nH]c2ccc(F)cc2c1-c1ccccc1 ; TGI = 58.7

----------
Test system: SK-MEL-28 melanoma
assay-info: NCI tumour cell line growth inhibition, 48 h
quantity-name: GI50

Check out these entries, answers already filled in.
compound	assay-result
CCN(C(=O)N1CCN(c2cc3c(cc2F)c(=O)c(C(=O)O)cn3C2CC2)CC1)c1nc(-c2ccc(C)cc2)cs1	0.687 µM
C=CC(=O)N(C)[C@H]1C[C@H]2OC(C)(C1OC)n1c3ccccc3c3c4c(c5c6ccccc6n2c5c31)C(=O)NC4 (stereo partly drawn)	0.369 µM

API: the following record is the query input.
Entry Cc1cc2c3ccc(C)[n+](C)c3ccc2n1C ; GI50 = 6.05 µM
